FYI, the data here is from patent US4211773A.

- assay.notes: Toxicity to normal lymphoblastoid cells
- Type: cell-based
- conditions.used: read-out: not toxic at concentrations of up to
readout: MNTC

Form field MNTC, entry Nc1nc(=O)n([C@@H]2O[C@H](CO)[C@@H](O)[C@@H]2F)cc1I : > 10 µM

====

- Test system: Herpes Simplex Virus--Type 1 (HSV-1) strain 2931
- assay.notes: Capacity to suppress HSV-1 replication in monolayers of Vero cells
- Format: cell-based
- conditions.used: Human alphaherpesvirus 1, 1.0 μg/ml, 24 hr, read-out: Anti-viral Activity (% reduction of HSV1 titer)
readout: activity at 1 µg/mL

| sample.smiles | result |
| --- | --- |
| Nc1nc(=O)n([C@@H]2O[C@H](CO)[C@@H](O)[C@@H]2F)cc1Br | 99 to 99.9% |
| O=c1[nH]c(=O)n([C@@H]2O[C@H](CO)[C@@H](O)[C@@H]2F)cc1Br | 99 to 99.9% |
| O=c1[nH]c(=O)n([C@@H]2O[C@H](CO)[C@@H](O)[C@@H]2F)cc1I | 99.9 to 100% |
| Nc1nc(=O)n([C@@H]2O[C@H](CO)[C@@H](O)[C@@H]2F)cc1Cl | < 90% |

For the next question, use this molecule.
Form field activity at 1 µg/mL, entry O=c1[nH]c(=O)n([C@@H]2O[C@H](CO)[C@@H](O)[C@@H]2F)cc1Cl : < 90%

====

- Tested on: Herpes Simplex Virus--Type 1 (HSV-1) strain 2931
- assay.notes: Capacity to suppress HSV-1 replication in monolayers of Vero cells
- Type: cell-based
- conditions.used: Human alphaherpesvirus 1, 1.0 μg/ml, 24 hr, read-out: Anti-viral Activity (% reduction of HSV1 titer)
readout: activity at 1 µg/mL (%)
Give your result in % as a bare value.

| compound | tested.on | activity at 1 µg/mL, % |
| --- | --- | --- |
| O=c1[nH]c(=O)n([C@@H]2O[C@H](CO)[C@@H](O)[C@@H]2F)cc1F [Vb] | Herpes Simplex Virus--Type 1 (HSV-1) strain 2931 | 100 |

For the next question, use this compound.
Log: Herpes Simplex Virus--Type 1 (HSV-1) strain 2931, compound Nc1nc(=O)n([C@@H]2O[C@H](CO)[C@@H](O)[C@@H]2F)cc1I [IVe] , activity at 1 µg/mL = 100

====

- System: Cytomegalovirus (CMV strain AD 169)
- assay.notes: Effective dose against Cytomegalovirus strain AD-169; CMV plaque formation on WI-38 cells
- Format: cell-based
- conditions.used: Human betaherpesvirus 5, AD169, WI-38; CMV strain AD-169; read-out: ED50 (the source's name)
readout: pEC50
// pEC50 is dimensionless: -log10 of concentration (M)

Form field pEC50, entry Nc1nc(=O)n([C@@H]2O[C@H](CO)[C@@H](O)[C@@H]2F)cc1I : 6.00

====

- Tested on: Herpes Simplex Virus - type 1
- assay.notes: Inhibition of Herpes Simplex Virus type 1 replication (effective doses)
- Format: cell-based
- conditions.used: Human alphaherpesvirus 1, HSV-1 strain Patton; read-out: ED50 (the source's name)
readout: EC50 (µM)
Give your result in µM as a bare value.

Form field EC50, entry Nc1nc(=O)n([C@@H]2O[C@H](CO)[C@@H](O)[C@@H]2F)cc1I [IVe] : 0.01

====

- assay.notes: Solubility in saline
- Assay type: physicochemical
- conditions.used: read-out: readily soluble at concentrations of
readout: solubility

Form field solubility, entry Nc1nc(=O)n([C@@H]2O[C@H](CO)[C@@H](O)[C@@H]2F)cc1I : ≥ 25 mg/mL

====

# activity at 1 µg/mL per record follows
- System: Herpes Simplex Virus--Type 1 (HSV-1) strain 2931
- assay.notes: Capacity to suppress HSV-1 replication in monolayers of Vero cells
- Format: cell-based
- conditions.used: Human alphaherpesvirus 1, 1.0 μg/ml, 24 hr, read-out: Anti-viral Activity (% reduction of HSV1 titer)

Before answering, review these 2 worked examples.
| compound | readout | result |
| --- | --- | --- |
| Nc1ccn([C@@H]2O[C@H](CO)[C@@H](O)[C@@H]2F)c(=O)n1 [IVa, reference compound] | activity at 1 µg/mL | 90 to 99% |
| Nc1nc(=O)n([C@@H]2O[C@H](CO)[C@@H](O)[C@@H]2F)cc1F | activity at 1 µg/mL | 99 to 99.9% |

Form field activity at 1 µg/mL, entry O=c1ccn([C@@H]2O[C@H](CO)[C@@H](O)[C@@H]2F)c(=O)[nH]1 : 99 to 99.9%
